Source: ChEMBL document CHEMBL3272075

Here the recorded logP is given for each entry.
# protocol summary: physchem
# test parameters: octanol/water
# Description: Partition coefficient, log P of the compound by shake-flask technique
quantity kind: logP

[
  {
    "compound": "c1ccc2nc3ccccc3nc2c1 [PHENAZINE]",
    "quantity kind": "logP",
    "observed": 2.85
  },
  {
    "compound": "CC(=O)Nc1ccc(OCC(O)CNC(C)C)cc1 (configuration not stated) [PRACTOLOL]",
    "quantity kind": "logP",
    "observed": 0.79
  },
  {
    "compound": "c1ccc2cnccc2c1 [ISOQUINOLINE]",
    "quantity kind": "logP",
    "observed": 2.08
  },
  {
    "compound": "CC(=O)Nc1ccccc1 [ACETANILIDE]",
    "quantity kind": "logP",
    "observed": 1.16
  },
  {
    "compound": "c1ccc2ncccc2c1 [QUINOLINE]",
    "quantity kind": "logP",
    "observed": 2.03
  },
  {
    "compound": "c1ccc2nc3ccccc3cc2c1 [ACRIDINE]",
    "quantity kind": "logP",
    "observed": 3.4
  },
  {
    "compound": "Nc1ccncc1 [DALFAMPRIDINE]",
    "quantity kind": "logP",
    "observed": 0.28
  }
]
